# TARGET SYSTEM: ovine COX-1 (Ovis aries, UniProt P05979)
# Sequence (P05979 25-600): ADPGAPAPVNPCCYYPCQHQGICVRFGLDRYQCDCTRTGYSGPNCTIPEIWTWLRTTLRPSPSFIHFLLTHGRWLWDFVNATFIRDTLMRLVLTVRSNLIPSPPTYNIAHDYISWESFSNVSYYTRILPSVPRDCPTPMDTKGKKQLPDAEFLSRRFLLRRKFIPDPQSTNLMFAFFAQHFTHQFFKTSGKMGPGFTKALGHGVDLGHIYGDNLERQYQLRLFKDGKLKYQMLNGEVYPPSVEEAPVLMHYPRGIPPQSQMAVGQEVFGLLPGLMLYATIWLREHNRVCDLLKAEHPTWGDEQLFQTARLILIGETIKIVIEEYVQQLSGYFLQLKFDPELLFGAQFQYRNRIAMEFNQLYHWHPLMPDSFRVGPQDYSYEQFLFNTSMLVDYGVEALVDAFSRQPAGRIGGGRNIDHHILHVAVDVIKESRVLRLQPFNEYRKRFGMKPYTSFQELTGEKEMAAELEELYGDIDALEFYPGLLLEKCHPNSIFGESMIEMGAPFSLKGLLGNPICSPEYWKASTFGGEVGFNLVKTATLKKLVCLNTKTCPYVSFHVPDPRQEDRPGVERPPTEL
REPORTED ENDPOINT: IC50 (µM)
One number for each entry, in µM.

Indicate its recorded IC50; the compound in question is Nc1ccc(S(=O)(=O)Nc2ncccn2)cc1 18.4

----------
# Test system: HepG2 (human liver cancer) cells
# METHOD DESCRIPTION: Cell viability, MTT assay, HepG2
# Format: cell-based
# CONDITION: Homo sapiens, HepG2, 24 h
REPORTED ENDPOINT: pIC50
Numbers only, as −log10 of the molar value.

Indicate its recorded pIC50; the compound in question is Nc1ccc(S(=O)(=O)Nc2ncccn2)cc1 3.61
